Study Target: Inadl_6, Q8NI35
Sequence (Q8NI35 1058-1167): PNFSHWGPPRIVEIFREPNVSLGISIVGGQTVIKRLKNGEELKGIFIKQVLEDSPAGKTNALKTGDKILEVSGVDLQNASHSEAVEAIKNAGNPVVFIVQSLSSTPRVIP
Method Description: holdup assay
Parameters: key: below the threshold = too weak to quantify, mostly under pKd 3.1 to 4
Assay Conditions: plain residues with an end cap or a label only (N-terminal biotin on a linker: ttds)
Observed Property: pKd

DPRNTQTSQI [ABRAXAS2, Q15018]: below the threshold
GGPKEEESPV [SLC16A1, P53985]: below the threshold
LCALPKVTTV [AGMAT, Q9BSE5]: 3.88
RTRQRNETQV [HPV51-E6, P26554]: below the threshold
